Test system: CESS (Acute Myeloid Leukemia)
ASSAY_PROTOCOL: Bliss excess, mean over the matrix (fraction); higher = more synergy;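 also: after 72 h of two-drug dosing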
Bliss excess reference

In the examples that follow, each entry is paired with its recorded Bliss excess.
COMPOUND	READOUT	OBSERVED_MEASUREMENT
CC(=O)Nc1cccc(-n2c(=O)n(C3CC3)c(=O)c3c(Nc4ccc(I)cc4F)n(C)c(=O)c(C)c32)c1 [Trametinib] + Cc1nc(-c2cn3c(n2)-c2ccc(-c4cnn(C(C)(C)C(N)=O)c4)cc2OCC3)n(C(C)C)n1 [Taselisib] (first compound max 1 µM, 7x7, partner max 10 µM)	Bliss excess	0.219
NC1(C(=O)N[C@@H](CCO)c2ccc(Cl)cc2)CCN(c2ncnc3[nH]ccc23)CC1 [Capivasertib] + CCN(CCO)CCCOc1ccc2c(Nc3cc(CC(=O)Nc4cccc(F)c4)[nH]n3)ncnc2c1 [AZD2811] (first compound max 10 µM, 7x7, partner max 1 µM)	Bliss excess	0.0217
Cc1c2c(nn1C)CSCc1cc(n(C)n1)CSc1cc(c3ccccc3c1)OCCCc1c(C(=O)O)n(C)c3c-2c(Cl)ccc13 [AZD5991] + CCN(CCO)CCCOc1ccc2c(Nc3cc(CC(=O)Nc4cccc(F)c4)[nH]n3)ncnc2c1 [AZD2811] (first compound max 1 µM, 7x7, partner max 1 µM)	Bliss excess	0.192

Bliss excess reading for CC(=O)c1c(C)c2cnc(Nc3ccc(N4CCNCC4)cn3)nc2n(C2CCCC2)c1=O [Palbociclib] + Cn1cnc2c(F)c(Nc3ccc(Br)cc3Cl)c(C(=O)NOCCO)cc21 [Selumetinib] (first compound max 10 µM, 7x7, partner max 10 µM) : 0.0202

* * *

Tested on: SK-HEP-1 (Hepatocellular Carcinoma)
ASSAY_PROTOCOL: Bliss excess, mean over the matrix (fraction); higher = more synergy
READOUT: Bliss excess
Format: numeric value only, no unit, no commentary.

In the examples that follow, each entry is paired with its recorded Bliss excess.
COMPOUND	OBSERVED_MEASUREMENT
Cc1c2c(nn1C)CSCc1cc(n(C)n1)CSc1cc(c3ccccc3c1)OCCCc1c(C(=O)O)n(C)c3c-2c(Cl)ccc13 [AZD5991] + CN(C)CCCOc1ccc(-c2ccc3ncc4c(c3c2)n(C2CCOCC2)c(=O)n4C)cn1 [AZD0156] (first compound max 1 µM, 7x7, partner max 1 µM)	0.0098
CN(C)CCCOc1ccc(-c2ccc3ncc4c(c3c2)n(C2CCOCC2)c(=O)n4C)cn1 [AZD0156] + O=C(c1cc(Cc2n[nH]c(=O)c3ccccc23)ccc1F)N1CCN(C(=O)C2CC2)CC1 [Olaparib] (first compound max 3 µM, partner max 3 µM)	0.0576
Cc1nc(-c2cn3c(n2)-c2ccc(-c4cnn(C(C)(C)C(N)=O)c4)cc2OCC3)n(C(C)C)n1 [Taselisib] + O=C(Nc1ccc2[nH]nc(-c3ccncc3)c2c1)[C@@H]1CCN(CC(=O)N2CCN(c3ccc(-c4ncccn4)cc3)CC2)C1 [SCH772984] (first compound max 10 µM, 7x7, partner max 5 µM)	0.0372

With SK-HEP-1 (Hepatocellular Carcinoma) as the test system, COc1cc2ncnc(Nc3ccc(F)c(Cl)c3)c2cc1OCCCN1CCOCC1 [Gefitinib] + CC(C)n1c(=O)n(C)c2cnc3cc(F)c(-c4ccc(OCCCN5CCCCC5)nc4)cc3c21 [AZD1390] (first compound max 10 µM, 7x7, partner max 0.3 µM) showed Bliss excess of 0.0092

With SK-HEP-1 (Hepatocellular Carcinoma) as the test system, Cc1c2c(nn1C)CSCc1cc(n(C)n1)CSc1cc(c3ccccc3c1)OCCCc1c(C(=O)O)n(C)c3c-2c(Cl)ccc13 [AZD5991] + Cc1cc2ncnn2cc1Nc1ncc2c(n1)n(C1CCOCC1)c(=O)n2C [AZD7648] (first compound max 1 µM, 7x7, partner max 10 µM) showed Bliss excess of -0.0463

With SK-HEP-1 (Hepatocellular Carcinoma) as the test system, Cc1c2c(nn1C)CSCc1cc(n(C)n1)CSc1cc(c3ccccc3c1)OCCCc1c(C(=O)O)n(C)c3c-2c(Cl)ccc13 [AZD5991] + Nc1ccn([C@@H]2O[C@H](CO)[C@@H](O)C2(F)F)c(=O)n1 [Gemcitabine] (first compound max 1 µM, 7x7, partner max 0.3 µM) showed Bliss excess of -0.109

With SK-HEP-1 (Hepatocellular Carcinoma) as the test system, CC(=O)c1c(C)c2cnc(Nc3ccc(N4CCNCC4)cn3)nc2n(C2CCCC2)c1=O [Palbociclib] + Cc1c2c(nn1C)CSCc1cc(n(C)n1)CSc1cc(c3ccccc3c1)OCCCc1c(C(=O)O)n(C)c3c-2c(Cl)ccc13 [AZD5991] (first compound max 10 µM, 7x7, partner max 1 µM) showed Bliss excess of 0.0434

The reported numbers originate from the supplement of paper PMC11061612.
